Target: HiBit-WIZ fusion protein (Homo sapiens, UniProt O95785+Q96SW2)
Sequence (O95785 whole entry, the tested form may be a part): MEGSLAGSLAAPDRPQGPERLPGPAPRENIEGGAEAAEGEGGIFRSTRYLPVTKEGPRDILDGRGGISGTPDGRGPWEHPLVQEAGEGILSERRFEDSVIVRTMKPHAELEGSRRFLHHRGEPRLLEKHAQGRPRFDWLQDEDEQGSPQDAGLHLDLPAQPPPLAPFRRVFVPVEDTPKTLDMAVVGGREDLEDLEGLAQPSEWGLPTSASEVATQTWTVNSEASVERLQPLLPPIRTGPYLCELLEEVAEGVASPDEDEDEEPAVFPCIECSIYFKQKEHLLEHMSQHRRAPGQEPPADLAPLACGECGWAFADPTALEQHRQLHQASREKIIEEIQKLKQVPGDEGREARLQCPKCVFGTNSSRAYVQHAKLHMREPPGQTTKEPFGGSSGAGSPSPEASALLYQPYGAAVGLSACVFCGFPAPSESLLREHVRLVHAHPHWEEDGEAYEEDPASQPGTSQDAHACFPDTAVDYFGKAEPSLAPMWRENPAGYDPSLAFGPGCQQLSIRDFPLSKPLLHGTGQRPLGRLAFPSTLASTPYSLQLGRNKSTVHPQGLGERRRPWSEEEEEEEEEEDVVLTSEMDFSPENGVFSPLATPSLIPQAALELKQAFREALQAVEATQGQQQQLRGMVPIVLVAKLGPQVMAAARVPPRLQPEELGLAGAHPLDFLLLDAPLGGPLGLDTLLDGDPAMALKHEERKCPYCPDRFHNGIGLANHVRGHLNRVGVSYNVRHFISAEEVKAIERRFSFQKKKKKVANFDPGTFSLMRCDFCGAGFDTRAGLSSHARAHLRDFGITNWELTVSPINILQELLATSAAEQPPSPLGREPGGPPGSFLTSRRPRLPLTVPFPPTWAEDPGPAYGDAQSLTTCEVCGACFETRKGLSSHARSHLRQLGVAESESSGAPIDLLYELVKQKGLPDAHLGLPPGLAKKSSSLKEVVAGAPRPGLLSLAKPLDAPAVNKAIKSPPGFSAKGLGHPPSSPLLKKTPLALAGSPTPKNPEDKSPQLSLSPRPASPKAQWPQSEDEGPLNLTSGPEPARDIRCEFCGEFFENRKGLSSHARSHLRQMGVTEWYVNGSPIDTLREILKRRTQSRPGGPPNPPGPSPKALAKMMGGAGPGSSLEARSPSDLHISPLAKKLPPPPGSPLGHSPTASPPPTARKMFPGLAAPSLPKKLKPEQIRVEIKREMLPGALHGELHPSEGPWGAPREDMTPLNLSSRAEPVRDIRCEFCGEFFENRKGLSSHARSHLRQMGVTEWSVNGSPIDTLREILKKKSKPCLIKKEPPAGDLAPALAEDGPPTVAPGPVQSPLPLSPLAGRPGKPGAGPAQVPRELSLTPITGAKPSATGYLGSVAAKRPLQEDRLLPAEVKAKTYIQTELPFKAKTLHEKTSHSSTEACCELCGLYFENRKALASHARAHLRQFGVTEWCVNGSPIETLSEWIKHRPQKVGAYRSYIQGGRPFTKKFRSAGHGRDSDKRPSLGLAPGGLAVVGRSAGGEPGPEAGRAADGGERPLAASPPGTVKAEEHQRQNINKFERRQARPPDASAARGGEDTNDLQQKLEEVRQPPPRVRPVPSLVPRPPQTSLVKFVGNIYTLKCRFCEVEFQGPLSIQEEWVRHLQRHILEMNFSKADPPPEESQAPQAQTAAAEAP
Sequence (Q96SW2 whole entry, the tested form may be a part): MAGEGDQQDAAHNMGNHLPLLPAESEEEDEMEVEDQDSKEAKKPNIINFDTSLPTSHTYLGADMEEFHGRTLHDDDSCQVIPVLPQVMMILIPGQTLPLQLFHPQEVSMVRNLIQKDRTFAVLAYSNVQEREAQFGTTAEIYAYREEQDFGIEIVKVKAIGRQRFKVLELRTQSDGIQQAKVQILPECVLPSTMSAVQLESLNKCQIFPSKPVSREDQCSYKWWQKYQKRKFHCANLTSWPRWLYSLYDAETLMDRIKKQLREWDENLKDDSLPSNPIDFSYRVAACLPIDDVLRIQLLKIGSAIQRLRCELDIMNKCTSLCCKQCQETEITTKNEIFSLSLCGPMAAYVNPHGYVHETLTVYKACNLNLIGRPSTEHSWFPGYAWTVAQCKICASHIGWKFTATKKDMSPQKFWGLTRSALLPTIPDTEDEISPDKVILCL
Sequence (Q16531 whole entry partner, the tested form may be a part): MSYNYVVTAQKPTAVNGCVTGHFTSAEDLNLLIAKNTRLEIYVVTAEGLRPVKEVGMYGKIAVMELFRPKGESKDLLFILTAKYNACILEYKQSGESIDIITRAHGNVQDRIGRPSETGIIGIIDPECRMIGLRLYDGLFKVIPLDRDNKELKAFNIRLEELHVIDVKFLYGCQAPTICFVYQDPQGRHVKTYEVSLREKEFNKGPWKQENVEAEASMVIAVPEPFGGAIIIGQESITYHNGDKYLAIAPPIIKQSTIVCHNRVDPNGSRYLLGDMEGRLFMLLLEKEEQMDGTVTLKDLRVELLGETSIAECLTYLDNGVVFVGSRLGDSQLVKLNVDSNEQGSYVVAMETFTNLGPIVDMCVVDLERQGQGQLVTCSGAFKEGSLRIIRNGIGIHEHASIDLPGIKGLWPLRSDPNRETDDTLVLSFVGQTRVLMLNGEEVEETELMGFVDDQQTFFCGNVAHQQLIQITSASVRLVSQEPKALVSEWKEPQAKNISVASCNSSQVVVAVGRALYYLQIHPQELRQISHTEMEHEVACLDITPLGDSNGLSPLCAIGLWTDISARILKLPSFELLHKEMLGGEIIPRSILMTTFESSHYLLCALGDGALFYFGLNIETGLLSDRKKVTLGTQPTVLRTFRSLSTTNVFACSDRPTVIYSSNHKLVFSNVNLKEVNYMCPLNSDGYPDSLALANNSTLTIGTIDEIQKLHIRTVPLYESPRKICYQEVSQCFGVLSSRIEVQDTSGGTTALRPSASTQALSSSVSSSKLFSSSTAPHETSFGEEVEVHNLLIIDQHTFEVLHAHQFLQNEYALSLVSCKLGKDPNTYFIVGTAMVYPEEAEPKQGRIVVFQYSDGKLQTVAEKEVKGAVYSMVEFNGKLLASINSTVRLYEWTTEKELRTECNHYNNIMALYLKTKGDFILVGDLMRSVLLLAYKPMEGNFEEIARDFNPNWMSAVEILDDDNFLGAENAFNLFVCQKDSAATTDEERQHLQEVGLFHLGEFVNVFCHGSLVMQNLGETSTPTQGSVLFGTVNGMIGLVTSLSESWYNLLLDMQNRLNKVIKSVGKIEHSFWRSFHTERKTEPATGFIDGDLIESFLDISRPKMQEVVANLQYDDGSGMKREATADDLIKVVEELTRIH
Assay: Quantification of WIZ protein levels in HiBit tag fusion protein assay (WIZ HiBit assay in 293T cells)
Format: cell-based
Settings: WIZ HiBit assay in 293T cells; 10-point, 5-fold dose response, highest concentration 25 μM, about 18 hours; read-out: WIZ AC50
For each record, write down the corresponding DC50.

// worked examples, DC50 included
O=C1CCC(N2Cc3cc(OC[C@@H]4CCCCN4Cc4cc(Cl)ccc4O)ccc3C2=O)C(=O)N1 (stereo partly shown) [Compound I-50bj]; > 25 µM
O=C1CCC(N2Cc3cc(OC[C@H]4CCCCN4Cc4cn[nH]c4)ccc3C2=O)C(=O)N1 (stereo partly shown) [Compound I-50an]; 1.71 µM
O=C1CCC(N2Cc3cc(OC[C@@H]4CCCCN4Cc4ccccc4OCC(=O)N4CCCCC4)ccc3C2=O)C(=O)N1 (stereo partly shown) [Compound I-50am]; > 25 µM

Answer for every listed entry: what is its DC50? The entries follow.
1. Cc1nc2ccccn2c1CN1CCCC[C@@H]1COc1ccc2c(c1)CN(C1CCC(=O)NC1=O)C2=O (stereo partly shown) [Compound I-50cd]
2. CC(C)c1cc(C(=O)N2CCCC[C@H]2COc2ccc3c(c2)CN(C2CCC(=O)NC2=O)C3=O)no1 (stereo partly shown) [Compound I-72cf]
3. CC(C)N1CCC(CC(=O)N2CCCC[C@H]2COc2ccc3c(c2)CN(C2CCC(=O)NC2=O)C3=O)CC1 (stereo partly shown) [Compound I-72fe]
4. Cn1ccc(-c2cccc(C(=O)N3CCCC[C@H]3COc3ccc4c(c3)CN(C3CCC(=O)NC3=O)C4=O)c2)n1 (stereo partly shown) [Compound I-72id]
5. O=C1CCC(N2Cc3cc(OC[C@H]4CCCCN4Cc4ccccc4OCC(=O)N4CCCCC4)ccc3C2=O)C(=O)N1 (stereo partly shown) [Compound I-50dq]

1. 3.74 µM
2. > 25 µM
3. > 25 µM
4. > 25 µM
5. 0.77 µM

====

Biological target: HiBit-WIZ fusion protein (Homo sapiens, UniProt O95785+Q96SW2)
Assay: Quantification of WIZ protein levels in HiBit tag fusion protein assay (WIZ HiBit assay in 293T cells)
Type: cell-based
Settings: HEK-293T, DMSO-normalized, curve-fitted percentage of WIZ-HiBit remaining at 25 uM; 293T cells; read-out: WIZ Amax
recorded metric: remaining activity at up to 25 µM

// worked examples, remaining activity at up to 25 µM included
CNc1ncccc1CN1CCCC[C@@H]1COc1ccc2c(c1)CN(C1CCC(=O)NC1=O)C2=O (stereo partly shown) [Compound I-50cj]; 28.2%
O=C1CCC(N2Cc3cc(OC[C@H]4CCCCN4Cc4ccccc4OCC(=O)N4CCCCC4)ccc3C2=O)C(=O)N1 (stereo partly shown) [Compound I-50dq]; 28.8%

Answer for every listed entry: what is its remaining activity at up to 25 µM? The entries follow.
1. CC(C)c1cc(C(=O)N2CCCC[C@H]2COc2ccc3c(c2)CN(C2CCC(=O)NC2=O)C3=O)n(C)n1 (stereo partly shown) [Compound I-72gd]
2. Cc1nc(C(F)(F)F)ccc1C(=O)N1CCCC[C@H]1COc1ccc2c(c1)CN(C1CCC(=O)NC1=O)C2=O (stereo partly shown) [Compound I-72n]
3. O=C1CCC(N2Cc3cc(OC[C@@H]4CCCCN4Cc4ccnc5[nH]ccc45)ccc3C2=O)C(=O)N1 (stereo partly shown) [Compound I-50cx]
4. O=C1CCC(N2Cc3cc(OC[C@@H]4CCCCN4C(=O)[C@H]4CCOC4)ccc3C2=O)C(=O)N1 (stereo partly shown) [Compound I-72fn]
5. O=C1CCC(N2Cc3cc(OC[C@H]4CCCCN4Cc4ccc5[nH]cnc5c4)ccc3C2=O)C(=O)N1 (stereo partly shown) [Compound I-193]

19.9%
76.6%
7.4%
97.4%
44.3%
